Molecular target: ALK2 (Mus musculus)
Construct: endogenous in cells
Sequence (P37172 21-509): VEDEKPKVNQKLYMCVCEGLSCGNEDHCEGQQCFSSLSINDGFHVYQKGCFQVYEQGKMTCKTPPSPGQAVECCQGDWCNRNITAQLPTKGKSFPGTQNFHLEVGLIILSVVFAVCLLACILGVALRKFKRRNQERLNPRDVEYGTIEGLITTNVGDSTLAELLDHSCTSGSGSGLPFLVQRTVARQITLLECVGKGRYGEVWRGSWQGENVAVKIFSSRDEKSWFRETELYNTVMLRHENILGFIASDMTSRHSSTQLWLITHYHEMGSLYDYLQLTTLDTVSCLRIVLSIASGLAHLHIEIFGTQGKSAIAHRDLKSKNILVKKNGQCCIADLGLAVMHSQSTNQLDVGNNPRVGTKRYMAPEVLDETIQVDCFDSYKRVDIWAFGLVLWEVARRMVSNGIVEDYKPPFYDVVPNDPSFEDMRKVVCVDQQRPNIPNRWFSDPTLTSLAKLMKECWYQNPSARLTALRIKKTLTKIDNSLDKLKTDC
Assay: Luciferase reporter gene assay for ALK2 activity (C2C12 BRE-Luc SMAD1/5/8 reporter, BMP6 agonist)
Conditions: BMP6 50 ng/mL
observable: pIC50
Note: pIC50 values are expressed as the negative base-10 logarithm of concentration in M.

Request: Quote pIC50 with test system ALK2 (Mus musculus) for COc1cc2c(-c3cnn4cc(N5CCC(N6CCCN(C)CC6)CC5)cnc34)ccnc2cc1F [Compound 42]
Response: 8.05

Request: Supply pIC50 measured with ALK2 (Mus musculus) for COc1cc2c(-c3cnn4cc(N5CCN(c6nnc(C)s6)CC5)cnc34)ccnc2cc1F [Compound 204] .
Response: 7.96

Request: Name the value of pIC50 reported for COc1cc2c(-c3cnn4cc(N5CCC(N6CCN(C)CC6)C5)cnc34)ccnc2cc1F (stereo not shown) [Compound 48] when tested on ALK2 (Mus musculus).
Response: 7.30

Request: State pIC50 (ALK2 (Mus musculus)) of COc1cc2c(-c3cnn4cc(N5CCC(N6CCC(N(C)C)C6)CC5)cnc34)ccnc2cc1F (stereo not shown) [Compound 190] .
Response: 7.51

The values you see were collected from patent US20230000869A1.
